- experimentSummary: Compound was tested for the inhibitory activity against alpha-mannosidase
pIC50: −log10 of the molar value.
assayReadout: pIC50

Solved cases (2 shown):
CS[C@@H]1[C@@H](N)[C@@H](O)C[C@H]1O	4.51
OCC1NC(O)C(O)C(O)C1O (stereo not given)	4.38

P = CS[C@H]1C[C@H](O)[C@H](O)[C@@H]1N
Q = CS[C@@H]1[C@@H](N)[C@@H](O)[C@@H](O)[C@H]1O [MANNOSTATIN A]
Identify the entry with the larger pIC50. Options: P and Q // caller expects the label of the chosen entry
Q

Data provenance: ChEMBL document CHEMBL1131727
